Reference for the values: the supplement of paper PMC10567573

B1: APBB1IP (parent)
chain: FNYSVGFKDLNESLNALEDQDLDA

- Variants of: B1
- test method notes: protein stability index of a GFP-peptide fusion (GPS, HEK-293T) (PSI 1-6); higher = more stable;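 further: lentivirally expressed fusions sorted by FACS into six bins by GFP to DsRed ratio, PSI derived from sequencing read proportions per bin multiplied by bin number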
- condition notes: c terminus: a fixed tail appended
observable: protein stability index

* E18T | 3.44
* S13T | 3.72
* Y3L | 4.52
* N11T | 4.58
* D19A | 3.97
* L17G | 4.51
* D21Y | 2.38
* N2H | 1.98
* K8A | 4.16
* S4E | 5.53
* D19F | 3
* N11A | 4.45
* E18S | 3.71
* L14R | 4.57
* A16Y | 3.93
* E18W | 2.52
